system.under.test: SHP2-E76K (Homo sapiens, UniProt Q06124, E76K)
Construct: Recombinant human full-length SHP2 (1–594) WT and E76K mutants; made in house
method.summary: Michaelis–Menten kinetics and mode of inhibition
Type: biochemical
measurement.conditions: DiFMUP, read-out: inhibition constant (Ki) for noncompetitive inhibition
assay.readout: pKi
pKi here is simply -log10 of the concentration when that concentration is written in mol/L.

query: Answer briefly: pKi recorded on SHP2-E76K (Homo sapiens, UniProt Q06124, E76K) for O=C(Nc1ccccc1)c1cc(-c2ccc(/C=C3\Sc4ccccc4C3=O)o2)ccc1O
result: 5.74

---

system.under.test: full-length SHP2-E76K oncogenic mutant (Homo sapiens, UniProt Q06124, E76K)
Construct: Recombinant human full-length SHP2 (1–594) WT and E76K mutants
Sequence (Q06124 whole entry E76K): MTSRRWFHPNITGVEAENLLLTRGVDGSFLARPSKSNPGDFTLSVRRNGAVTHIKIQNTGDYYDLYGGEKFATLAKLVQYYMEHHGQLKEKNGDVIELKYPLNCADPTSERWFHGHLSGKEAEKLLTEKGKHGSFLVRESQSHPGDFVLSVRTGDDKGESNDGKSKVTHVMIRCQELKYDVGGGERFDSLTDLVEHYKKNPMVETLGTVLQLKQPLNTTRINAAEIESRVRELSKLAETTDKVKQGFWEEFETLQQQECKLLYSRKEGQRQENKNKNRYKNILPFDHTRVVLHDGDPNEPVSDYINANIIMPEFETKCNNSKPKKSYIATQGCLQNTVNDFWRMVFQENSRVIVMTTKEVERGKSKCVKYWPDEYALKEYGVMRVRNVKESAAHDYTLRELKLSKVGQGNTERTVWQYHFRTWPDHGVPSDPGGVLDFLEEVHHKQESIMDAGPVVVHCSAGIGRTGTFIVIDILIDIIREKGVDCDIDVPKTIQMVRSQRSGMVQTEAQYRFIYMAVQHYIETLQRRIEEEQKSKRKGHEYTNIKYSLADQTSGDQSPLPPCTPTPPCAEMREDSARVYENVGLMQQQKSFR
method.summary: DiFMUP fluorescence phosphatase inhibition assay, SHP2-E76K
measurement.conditions: DiFMUP at Km (20 μM), 10-point dose–response, pH 6.0
Give IC50 for every item shown.
Quick note: give the figure in µM, leave out the unit.

query: Answer briefly: IC50 recorded on full-length SHP2-E76K oncogenic mutant (Homo sapiens, UniProt Q06124, E76K) for Nc1ccc(NC(=O)c2cc(-c3ccc(/C=C4\Sc5ccccc5C4=O)o3)ccc2O)cc1
result: 0.48

query: Answer briefly: IC50 recorded on full-length SHP2-E76K oncogenic mutant (Homo sapiens, UniProt Q06124, E76K) for O=C1/C(=C/c2ccc(-c3ccc(O)c(-c4nn[nH]n4)c3)o2)Sc2ccccc21
result: 4.1

query: Answer briefly: IC50 recorded on full-length SHP2-E76K oncogenic mutant (Homo sapiens, UniProt Q06124, E76K) for O=C1CCCC1=Cc1ccc(-c2ccc(O)c(C(=O)O)c2)o1
result: 6

---

Give pIC50 for every item shown.
system.under.test: SHP2 catalytic domain (SHP2cat; residues 248–527) (Homo sapiens, UniProt Q06124)
Construct: the SHP2 catalytic domain (SHP2cat; residues 248–527); made in house
method.summary: DiFMUP fluorescence phosphatase inhibition assay, SHP2cat
Format: biochemical
measurement.conditions: catalytic domain; DiFMUP at Km; read-out: SHP2 IC50 (Table 2)
Source text: To test the synthesized compounds for their potential to inhibit SHP2 activity, a fluorescence intensity-based assay using 6,8-difluoro-4-methylumbelliferyl phosphate (DiFMUP) as the substrate was adapted for three recombinant SHP2 constructs: (1) the SHP2 catalytic domain (SHP2cat; residues 248–527), (2) the full-length SHP2-E76K oncogenic mutant, and (3) the full-length SHP2 WT (SHP2-WT). The recombinant SHP2 proteins were expressed and purified as described previously ([36]). […]
pIC50 here is simply -log10 of the concentration when that concentration is written in mol/L.

query: Tell me pIC50 reported for N#Cc1cc(-c2ccc(/C=C3\Sc4ccccc4C3=O)o2)ccc1O
result: 5.85

query: Tell me pIC50 reported for O=C(Nc1ccccc1)c1cc(-c2ccc(/C=C3\Sc4ccccc4C3=O)o2)ccc1O
result: 6.14

query: Tell me pIC50 reported for O=C1CCCC1=Cc1ccc(-c2ccc(O)c(C(=O)Nc3ccccc3)c2)o1
result: 5.96
